Data provenance: patent US9527876B2

Test: Solubility of Compound Q in buffer solutions of different pH (HPLC)
Assay type: physicochemical
Conditions: aqueous buffer, thermodynamic from solid; buffer solution pH 5; 1 mg in 1 mL; read-out: Measured concentration (solubility)
parameter: solubility at 5 min (µg/mL)

>>> print(df.to_string())
                                   compound            parameter  result_value
0  COc1ccc(CNc2nc(N3CC4CC4C3)ncc2C(=O)N[C@H]2CC[C@H](O)CC2)cc1Cl (stereo partly shown)  solubility at 5 min         0.276

* * *

Experiment: Solubility of Compound Q in buffer solutions of different pH (HPLC)
Assay type: physicochemical
Details: aqueous buffer, thermodynamic from solid; buffer solution pH 7; 1 mg in 1 mL; read-out: Measured concentration (solubility)
Procedure: 2. Method for preparing sample of Compound Q, 4 parts of test sample were precisely weighed, each was 1 mg and was separately added to 1 mL of buffer solutions of pH 3, pH 5, pH 7, pH 9, treated with ultrasound for 5 min and filtered through 0.45 μm organic filtration membrane. The filter liquors were used as test sample solutions. 10 μL of each was injected into high performance liquid chromatograph, and peak areas were recorded. […]
parameter: solubility at 5 min (µg/mL)

>>> print(df.to_string())
                                   compound  result_value
0  COc1ccc(CNc2nc(N3CC4CC4C3)ncc2C(=O)N[C@H]2CC[C@H](O)CC2)cc1Cl (stereo partly shown) [Compound Q]         0.124
